Source of measurements: paper PMC12526004

Observed IC50, system UniProt:P80457.
Sequence (P80457 whole entry): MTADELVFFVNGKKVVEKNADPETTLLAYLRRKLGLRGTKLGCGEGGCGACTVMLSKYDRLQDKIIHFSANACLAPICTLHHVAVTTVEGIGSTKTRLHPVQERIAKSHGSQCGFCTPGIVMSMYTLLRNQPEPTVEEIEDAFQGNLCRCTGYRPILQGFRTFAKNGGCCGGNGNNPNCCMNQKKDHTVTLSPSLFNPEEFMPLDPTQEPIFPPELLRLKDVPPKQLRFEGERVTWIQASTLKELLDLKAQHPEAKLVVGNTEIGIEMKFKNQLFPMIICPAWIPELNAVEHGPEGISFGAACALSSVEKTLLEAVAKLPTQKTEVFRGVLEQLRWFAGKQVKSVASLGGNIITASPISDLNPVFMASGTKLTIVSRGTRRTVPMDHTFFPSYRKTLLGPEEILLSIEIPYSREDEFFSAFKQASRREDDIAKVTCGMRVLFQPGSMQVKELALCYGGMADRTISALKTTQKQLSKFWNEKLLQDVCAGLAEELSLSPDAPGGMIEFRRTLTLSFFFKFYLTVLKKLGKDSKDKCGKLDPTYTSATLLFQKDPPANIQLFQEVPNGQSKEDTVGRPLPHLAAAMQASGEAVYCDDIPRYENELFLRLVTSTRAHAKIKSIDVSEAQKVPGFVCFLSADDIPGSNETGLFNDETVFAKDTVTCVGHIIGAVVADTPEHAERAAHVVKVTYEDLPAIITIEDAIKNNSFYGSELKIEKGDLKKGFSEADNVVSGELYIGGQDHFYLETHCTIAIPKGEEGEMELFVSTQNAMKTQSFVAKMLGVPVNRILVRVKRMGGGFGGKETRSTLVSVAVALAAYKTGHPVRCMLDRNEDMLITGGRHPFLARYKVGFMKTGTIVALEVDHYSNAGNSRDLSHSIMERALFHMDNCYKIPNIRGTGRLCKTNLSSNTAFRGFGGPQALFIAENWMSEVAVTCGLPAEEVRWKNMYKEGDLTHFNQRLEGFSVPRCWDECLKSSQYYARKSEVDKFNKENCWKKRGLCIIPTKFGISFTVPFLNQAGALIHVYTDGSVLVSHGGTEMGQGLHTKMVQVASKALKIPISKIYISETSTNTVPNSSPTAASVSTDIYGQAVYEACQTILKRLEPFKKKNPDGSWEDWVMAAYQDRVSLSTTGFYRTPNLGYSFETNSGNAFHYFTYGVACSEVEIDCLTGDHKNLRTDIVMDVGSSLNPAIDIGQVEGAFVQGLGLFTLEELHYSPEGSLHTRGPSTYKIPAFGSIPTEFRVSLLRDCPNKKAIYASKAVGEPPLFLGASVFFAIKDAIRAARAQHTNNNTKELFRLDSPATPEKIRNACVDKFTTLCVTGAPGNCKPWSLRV

Known results for compounds:
{"columns": ["COMPOUND", "OBSERVED_PROPERTY", "RECORDED_VALUE"],
 "data": [
  ["O=C(O)/C=C/c1ccc(O)cc1 [p-Coumaric acid, p-coumaric acid]", "IC50", "> 100 µM"],
  ["O=c1c(O[C@@H]2O[C@H](CO)[C@@H](O)[C@H](O)[C@H]2O)c(-c2ccc(O)cc2)oc2cc(O)cc(O)c12 [Astragalin, kaempferol-3-O-glucoside]", "IC50", "43 µM"]
]}

**Q:** // fetch IC50; item: O=C(/C=C/c1ccc(O)cc1)OC[C@H]1O[C@@H](Oc2c(-c3ccc(O)cc3)oc3cc(O)cc(O)c3c2=O)[C@H](O)[C@@H](O)[C@@H]1O [Tiliroside] ; system: UniProt:P80457
**A:** > 100 µM
